- study_system: PDK1 (Homo sapiens)
- Construct: purchased Eurofins Pharma Discovery Services (KinaseProfiler; Cerep BioPrint panel)
- Sequence (O15530 whole entry): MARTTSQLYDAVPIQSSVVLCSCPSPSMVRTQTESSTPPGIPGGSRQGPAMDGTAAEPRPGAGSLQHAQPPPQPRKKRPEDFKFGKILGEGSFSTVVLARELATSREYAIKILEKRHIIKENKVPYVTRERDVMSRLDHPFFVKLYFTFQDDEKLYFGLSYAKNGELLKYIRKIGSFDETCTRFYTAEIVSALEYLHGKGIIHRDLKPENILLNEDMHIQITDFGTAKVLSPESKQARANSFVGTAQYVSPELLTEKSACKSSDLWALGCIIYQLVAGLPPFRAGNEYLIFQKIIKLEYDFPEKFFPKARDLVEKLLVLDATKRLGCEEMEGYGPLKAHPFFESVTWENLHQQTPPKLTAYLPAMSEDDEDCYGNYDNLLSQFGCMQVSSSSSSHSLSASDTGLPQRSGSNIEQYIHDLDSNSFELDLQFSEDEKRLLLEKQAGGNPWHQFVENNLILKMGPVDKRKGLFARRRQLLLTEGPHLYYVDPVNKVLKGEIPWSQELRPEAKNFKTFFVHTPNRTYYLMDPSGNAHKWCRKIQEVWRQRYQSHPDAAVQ
- run_description: kinase selectivity panel
- Assay type: biochemical
- assay_setup: read-out: percentage of control activity (POC), PDK1
quantity_kind: remaining activity at 10 µM (%)
Numeric only. Scale: %

Query: Entry "CC(C)(C)N1CCC(c2cc(-c3ccc(F)cc3Cl)c3cc[n+]([O-])c(-c4c(Cl)cccc4Cl)c3n2)CC1" : reported remaining activity at 10 µM = ?
Response: 121

Query: Entry "Cc1ccc(C(=O)NCC2CC2)cc1-c1ccc2c(c1)NC(=O)C21CCCC1" : reported remaining activity at 10 µM = ?
Response: 98

Query: Entry Cn1cc(-c2cccc(-c3nc(C(=O)NC4C5CC6CC4CC(O)(C6)C5)c(N)nc3N)c2)cn1 (centres unmarked) : reported remaining activity at 10 µM = ?
Response: 118

Query: Entry "CS(=O)(=O)N1CCN(c2ccc(Nc3ncc(C(N)=O)c(NC4CC4)n3)cc2)CC1" : reported remaining activity at 10 µM = ?
Response: 7

Query: Entry COc1c(NC(=O)c2ccc(C)c(-c3nnc4c(NCC(C)(C)C)nccn34)c2)cc(C(C)(C)C)cc1NS(C)(=O)=O [compound 7, reference compound] : reported remaining activity at 10 µM = ?
Response: 121
